B1: HDV Ribozyme (parent)
chain: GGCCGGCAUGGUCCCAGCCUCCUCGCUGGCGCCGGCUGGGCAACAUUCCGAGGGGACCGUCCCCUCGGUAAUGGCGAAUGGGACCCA

# Variants of: B1
# PROTOCOL: self-cleavage, relative activity (ratio to wild type); higher = more cleavage; co-transcriptional
Label class 1 when self-cleavage >= 0.4; otherwise class 0.

Query: State whether the measured self-cleavage reaches 0.4, counting equality as reaching it, for GGCCGGCAUGGUCCCAGCCUCCUCGCUGGCGCCGGCUGGGCAACAAUCCGAGGGGACCGUCCCCUCGGUACUGGCGAAUGGGACCCA
Response: class 1

Query: hey, is self-cleavage for this one >= 0.4? GGCCCGCAUGGUCCCAGCCUCCUCGCUGGCGCCGGCUGGGAAACAUUCCGAGGGGACCGUCCCCUCGGUAAUGGCGAAUGGGACCCA
Response: class 0

Query: I'd appreciate it if you could say whether GGCCGUCAUGGUCCCAGCCUACUCGCUGGCGCCGGCUGGGCAACAUUCCGAGGGGACCGUCCCCUCGGUAAUGGCGAAUGGGACCCA has self-cleavage at least equal to 0.4.
Response: class 0

Query: Quick check: does GGCCGGCAUGGUCCCAGCCUCCUCCCUGGCGCCGGCUGGGCAACAUUUCGAGGGGACCGUCCCCUCGGUAAUGGCGAAUGGGACCCA have self-cleavage greater than or equal to 0.4?
Response: class 0
